# testTarget: UniProt P31749
# Sequence (P31749 whole entry): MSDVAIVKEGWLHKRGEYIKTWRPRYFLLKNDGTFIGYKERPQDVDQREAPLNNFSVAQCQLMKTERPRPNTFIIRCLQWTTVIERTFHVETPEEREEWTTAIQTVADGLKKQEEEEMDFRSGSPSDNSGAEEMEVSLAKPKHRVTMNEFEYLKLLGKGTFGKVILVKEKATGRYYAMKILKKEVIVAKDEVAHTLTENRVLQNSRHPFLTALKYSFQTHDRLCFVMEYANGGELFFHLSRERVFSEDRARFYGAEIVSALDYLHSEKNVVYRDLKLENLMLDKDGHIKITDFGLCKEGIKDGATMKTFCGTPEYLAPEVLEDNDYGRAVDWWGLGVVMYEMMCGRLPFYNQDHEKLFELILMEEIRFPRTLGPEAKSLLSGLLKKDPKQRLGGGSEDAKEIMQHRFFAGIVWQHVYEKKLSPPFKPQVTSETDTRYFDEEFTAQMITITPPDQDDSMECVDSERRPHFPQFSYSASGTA
# protocolText: STK HTRF KinEASE activity-based assay (IC50)
# conditionNotes: IC50 Akt1, HTRF, ATP at KM, 1 h preincubation
Listed compounds paired with reported pIC50
# log scale: pIC50 equals minus log10 of the concentration in mol/L

Solved cases below.
# smilesCode, pIC50
records = [
    ("C=CC(=O)Nc1ccc2[nH]c(=O)n(C3CCN(Cc4ccc(-c5ncc(CNCC(C)C)cc5-c5ccccc5)cc4)CC3)c2c1", 5.23),
    ("C=CC(=O)Nc1ccc2[nH]c(=O)n(C3CCN(Cc4ccc(-c5ncc(Cc6cccc(O)c6)cc5-c5ccccc5)cc4)CC3)c2c1", 5.02),
    ("C=CC(=O)Nc1ccc2[nH]c(=O)n(C3CCN(Cc4ccc(-c5ncc(C(=O)OC)cc5-c5ccccc5)cc4)CC3)c2c1", 7.46),
]

Query compound follows.
Request: Which pIC50 value is on record for C=CC(=O)Nc1ccc2[nH]c(=O)n(C3CCN(Cc4ccc(-c5ncc(C(=O)Nc6cnn(C)c6)cc5-c5ccccc5)cc4)CC3)c2c1 ?
Result: 7.01
